TARGET OR TEST SYSTEM: LRRK2 G2019S enzyme (Homo sapiens (Human), UniProt Q5S007, G2019S)
Sequence (Q5S007 whole entry G2019S): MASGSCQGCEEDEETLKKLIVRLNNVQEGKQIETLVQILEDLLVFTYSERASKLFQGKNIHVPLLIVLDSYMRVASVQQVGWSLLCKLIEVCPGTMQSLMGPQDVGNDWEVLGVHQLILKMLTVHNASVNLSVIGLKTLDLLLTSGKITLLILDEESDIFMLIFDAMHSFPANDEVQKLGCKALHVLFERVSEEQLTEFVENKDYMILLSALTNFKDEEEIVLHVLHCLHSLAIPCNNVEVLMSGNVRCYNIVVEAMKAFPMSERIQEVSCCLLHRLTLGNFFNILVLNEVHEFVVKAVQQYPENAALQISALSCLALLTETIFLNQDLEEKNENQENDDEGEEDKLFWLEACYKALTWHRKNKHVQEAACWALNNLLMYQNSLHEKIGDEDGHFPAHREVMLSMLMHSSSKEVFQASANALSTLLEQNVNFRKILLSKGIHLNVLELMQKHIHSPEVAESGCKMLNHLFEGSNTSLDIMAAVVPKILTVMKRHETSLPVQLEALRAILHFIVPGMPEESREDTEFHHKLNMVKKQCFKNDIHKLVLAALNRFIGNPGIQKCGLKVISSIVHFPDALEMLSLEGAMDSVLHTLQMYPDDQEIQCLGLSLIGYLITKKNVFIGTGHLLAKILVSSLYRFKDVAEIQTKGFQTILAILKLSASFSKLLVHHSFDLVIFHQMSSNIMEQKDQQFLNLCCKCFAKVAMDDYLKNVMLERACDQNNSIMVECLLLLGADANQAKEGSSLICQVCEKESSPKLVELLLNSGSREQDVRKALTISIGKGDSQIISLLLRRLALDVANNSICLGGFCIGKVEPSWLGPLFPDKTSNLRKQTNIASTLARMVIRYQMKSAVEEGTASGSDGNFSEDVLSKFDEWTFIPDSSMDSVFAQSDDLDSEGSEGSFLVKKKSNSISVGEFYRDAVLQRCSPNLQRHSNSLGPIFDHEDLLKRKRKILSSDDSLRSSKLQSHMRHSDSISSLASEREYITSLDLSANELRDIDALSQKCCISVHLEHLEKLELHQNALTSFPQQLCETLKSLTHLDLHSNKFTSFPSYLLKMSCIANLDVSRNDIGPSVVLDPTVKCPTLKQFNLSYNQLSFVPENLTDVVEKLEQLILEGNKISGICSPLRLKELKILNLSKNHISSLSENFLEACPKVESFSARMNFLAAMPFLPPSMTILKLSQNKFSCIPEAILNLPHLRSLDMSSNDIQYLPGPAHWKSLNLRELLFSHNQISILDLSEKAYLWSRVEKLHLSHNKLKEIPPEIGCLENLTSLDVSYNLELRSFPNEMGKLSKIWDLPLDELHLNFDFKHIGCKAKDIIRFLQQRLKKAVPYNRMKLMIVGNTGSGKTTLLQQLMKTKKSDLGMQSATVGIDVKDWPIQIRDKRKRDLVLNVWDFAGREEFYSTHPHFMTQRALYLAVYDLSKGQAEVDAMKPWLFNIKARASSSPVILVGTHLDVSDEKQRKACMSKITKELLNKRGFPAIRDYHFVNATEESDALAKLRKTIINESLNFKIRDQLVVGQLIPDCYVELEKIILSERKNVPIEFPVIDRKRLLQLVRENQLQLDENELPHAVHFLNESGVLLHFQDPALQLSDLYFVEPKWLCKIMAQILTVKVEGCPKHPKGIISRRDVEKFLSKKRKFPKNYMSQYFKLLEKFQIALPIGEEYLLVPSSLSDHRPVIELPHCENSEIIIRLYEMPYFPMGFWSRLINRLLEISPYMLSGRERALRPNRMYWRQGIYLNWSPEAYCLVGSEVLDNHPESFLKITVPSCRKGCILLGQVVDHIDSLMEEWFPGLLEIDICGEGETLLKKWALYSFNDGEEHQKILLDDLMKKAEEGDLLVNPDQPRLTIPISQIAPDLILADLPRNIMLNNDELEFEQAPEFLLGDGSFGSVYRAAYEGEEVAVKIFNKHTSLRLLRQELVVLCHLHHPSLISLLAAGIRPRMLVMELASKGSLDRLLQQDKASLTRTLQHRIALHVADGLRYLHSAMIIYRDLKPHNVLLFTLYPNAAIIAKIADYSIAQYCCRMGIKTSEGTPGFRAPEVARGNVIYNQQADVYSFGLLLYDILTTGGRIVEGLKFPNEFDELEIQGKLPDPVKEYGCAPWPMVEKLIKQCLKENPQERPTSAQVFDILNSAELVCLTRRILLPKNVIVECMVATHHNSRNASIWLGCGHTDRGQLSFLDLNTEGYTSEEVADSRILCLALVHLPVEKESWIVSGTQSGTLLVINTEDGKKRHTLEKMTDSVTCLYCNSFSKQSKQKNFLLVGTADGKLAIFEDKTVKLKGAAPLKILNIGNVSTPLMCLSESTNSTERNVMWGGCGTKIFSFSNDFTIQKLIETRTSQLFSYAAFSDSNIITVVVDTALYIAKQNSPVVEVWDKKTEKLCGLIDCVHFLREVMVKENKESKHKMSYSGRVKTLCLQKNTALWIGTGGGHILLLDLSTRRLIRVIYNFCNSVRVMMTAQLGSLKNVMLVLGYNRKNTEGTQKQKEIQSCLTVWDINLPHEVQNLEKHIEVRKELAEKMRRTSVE
TEST PROTOCOL: LRRK2 G2019S TR-FRET biochemical assay (LRRKtide substrate)
CONDITION DETAILS: 134 μM ATP
EXPERIMENTAL READOUT: IC50

MOLECULE	RESULT
CCNc1nc(Nc2cc(CN3CCCC3=O)nn2C2CC2)ncc1C(F)(F)F [Compound 149]	30 to 60 nM

# input Fill in reported IC50 for this entry: COc1nc(Nc2cc(C(C)(C)n3nccn3)nn2C2CC2)ncc1Br [Compound 157]
# output 30 to 60 nM

# input Fill in reported IC50 for this entry: [2H]C([2H])([2H])c1nn(C(C)(C)C#N)cc1Nc1ncc(C(F)(F)F)c(NC)n1 [Compound 62]
# output < 30 nM

# input Fill in reported IC50 for this entry: CCNc1nc(Nc2cn(C3(CF)CCOC3=O)nc2C)ncc1C(F)(F)F (single isomer, unassigned) [Compound 217]
# output < 30 nM

* * *

TEST PROTOCOL: Metabolic stability in human liver microsomes
Assay type: in vitro ADME
CONDITION DETAILS: 1 μM compound, 0.5 mg/mL protein, projected hepatic clearance, well-stirred model
Procedure: Metabolic stability of compounds was evaluated in human liver microsomes (from Corning or XenoTech, LLC) using a 96-well plate assay format. […] Samples were analyzed by LC-MS/MS using appropriate MRM transitions for each analyte and internal standard (IS). […] Intrinsic clearance (Clint; expressed as mL·min^−1·mg^−1) was calculated from the first order elimination constant (k, min^−1) of test article decay and the volume of the incubation. […]
EXPERIMENTAL READOUT: Human liver microsomes CLhep (mL/min/kg)

Take a look at these entries with their results.
MOLECULE	Human liver microsomes CLhep (mL/min/kg)
CNc1nc(Nc2cn(C3(C)CCOC3=O)nc2C2CC2)ncc1C(F)(F)F (single isomer, unassigned) [Compound 122]	9.856
CNc1nc(Nc2cn(C(C)(C)c3ncn(C)n3)nc2C)ncc1C(F)(F)F [Compound 218]	0
CCNc1nc(Nc2cc(C3(C)CCOC3=O)nn2C2CC2)ncc1Br (single isomer, unassigned) [Compound 150]	11.077
CCNc1nc(Nc2cnn(C3CC(C#N)C3)c2C)ncc1C(F)(F)F (centres unmarked) [Compound 27]	7.81
CCNc1nc(Nc2cc(C3(C)CCn4ncnc43)nn2C2CC2)ncc1C(F)(F)F (single isomer, unassigned) [Compound 172]	19.9

1. CNc1nc(Nc2cc(C3(C)CCOC3=O)nn2C2CC2)ncc1C(F)(F)F (single isomer, unassigned) [Compound 155]
2. [2H]C([2H])([2H])n1nc(C(C)(C)n2nccn2)cc1Nc1ncc(C(F)(F)F)c(NCC)n1 [Compound 34]
# input Which gives the smaller Human liver microsomes CLhep number: 1 or 2 ? Refer to your chosen item by its label in the answer.
# output 2
(2: 0.75 mL/min/kg, 1: 5.519 mL/min/kg)

* * *

TARGET OR TEST SYSTEM: LRRK2 G2019S enzyme (Homo sapiens (Human), UniProt Q5S007, G2019S)
TEST PROTOCOL: LRRK2 G2019S TR-FRET biochemical assay (LRRKtide substrate)
CONDITION DETAILS: 134 μM ATP
Here, each record is paired with measured IC50 data.

Take a look at these entries with their results.
MOLECULE	IC50
CNc1nc(Nc2cc(C3(C)CCn4ccnc43)nn2C2CC2)ncc1C(F)(F)F (stereo not shown) [Compound 177]	> 60 nM
CCNc1nc(Nc2cnn3c2CC2(COC2)C3)ncc1C(F)(F)F	< 30 nM
CCNc1nc(Nc2ccnn2[C@H]2C[C@H](n3ccnn3)C2)ncc1C(F)(F)F	< 30 nM

Please find the next molecule below.
# input Would you please give the reported IC50 of CNc1nc(Nc2cn(C3C[C@@H]3C#N)nc2C2CC2)ncc1C(F)(F)F (single isomer, unassigned) with LRRK2 G2019S enzyme (Homo sapiens (Human), UniProt Q5S007, G2019S)?
# output < 30 nM
